Biological target: T1, His-tagged human HtrA1 protease domain (human, UniProt Q92743 161-367)
T1 construct: His-tagged protease domain; also called huHtrA1-PD-His; huHtrA1-PD
T1 sequence (Q92743 other isoform, or with tags, fused parts or gaps limits assumed): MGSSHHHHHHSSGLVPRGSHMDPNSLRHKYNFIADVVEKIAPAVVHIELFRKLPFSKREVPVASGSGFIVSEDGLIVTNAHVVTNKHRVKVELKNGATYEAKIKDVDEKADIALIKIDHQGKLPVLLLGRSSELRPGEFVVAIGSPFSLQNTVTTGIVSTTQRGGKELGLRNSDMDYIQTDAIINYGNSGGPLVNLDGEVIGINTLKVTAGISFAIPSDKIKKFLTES
Test: SPR (BIACORE T200), huHtrA1-PD-His captured by anti-His, Fab injected
// kon lookup, one value per entry
value.type: kon (M⁻¹ s⁻¹)

| binder | value.reported |
| --- | --- |
| combination mutant LC3.HC5 Fab (Fab, V domains shown, Fab) VH: EVQLVQSGAEVKKPGASVKVSCKASGYTFTDSELHWVRQAPGQGLEWIGGVDPETDGAAYNQKFKGRATITRDTSTSTAYLELSSLRSEDTAVYYCTRGYDYDYALDYWGQGTLVTVSS VL: DIQMTQSPSSLSASVGDRVTITCRASSSVEFIHWYQQKPGKAPKPLISATSNLASGVPSRFSGSGSGTDFTLTISSLQPEDFATYYCQQWSSNPWTFGQGTKVEIK | 577000 |
| combination mutant LC4.HC3 Fab (Fab, V domains shown, Fab) VH: EVQLVQSGAEVKKPGASVKVSCKASGYKFTDSEMHWVRQAPGQGLEWIGGVDPETDGAAYNQKFKGRATITRDTSTSTAYLELSSLRSEDTAVYYCTRGYDYDYALDYWGQGTLVTVSS VL: DIQMTQSPSSLSASVGDRVTITCRASSSVNFIHWYQQKPGKAPKPLISATSHLASGVPSRFSGSGSGTDFTLTISSLQPEDFATYYCQQWSSNPWTFGQGTKVEIK | 110000 |
| combination mutant LC7.HC3 Fab (Fab, V domains shown, Fab) VH: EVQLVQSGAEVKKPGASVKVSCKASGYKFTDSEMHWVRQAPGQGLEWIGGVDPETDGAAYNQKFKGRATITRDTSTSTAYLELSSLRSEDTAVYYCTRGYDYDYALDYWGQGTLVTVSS VL: DIQMTQSPSSLSASVGDRVTITCRASSSVNFIHWYQQKPGKAPKPLISATSNLASGVPSRFSGSGSGTDFTLTISSLQPEDFATYYCQQWYSNPWTFGQGTKVEIK | 709000 |
